- Test Method Notes: Clearance in Sprague-Dawley rat at 1 µmol/kg, iv by LC/MS analysis
- Reported Conditions: in vivo
Assay Metric: clearance (mL/min/kg)
Give the value in mL/min/kg but do not write mL/min/kg after it.

Request: Hello, please tell me recorded clearance for this one: `NC(=O)c1cc2ccc(OC(F)(F)F)cc2n1-c1cccc(CCC(=O)O)c1`
Result: 9.1

###

- Experimental System: Group 10 secretory phospholipase A2 (Homo sapiens, UniProt O15496)
- Sequence (O15496 whole entry): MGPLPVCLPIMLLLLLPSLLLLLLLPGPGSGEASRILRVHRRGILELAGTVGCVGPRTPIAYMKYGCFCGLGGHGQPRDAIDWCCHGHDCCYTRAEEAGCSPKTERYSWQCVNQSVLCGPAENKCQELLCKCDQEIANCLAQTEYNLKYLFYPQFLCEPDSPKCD
- Test Method Notes: Inhibition of recombinant human sPLA2-10 expressed in Escherichia coli BL21(DE3) using 1-palmitoyl-2-oleoyl-sn-glycero-3-phosphocholine as substrate pretreated for 20 mins followed by substrate addition and measured after 60 mins
Below, each entry is listed alongside its reported log10(IC50).
All values: log10 IC50 [µM].

- Cc1ccc2c(c1)cc(C(N)=O)n2-c1cccc(CCC(=O)O)c1: 0.43
- NC(=O)c1cc2ccccc2n1-c1cccc(OCC(=O)O)c1: 1.43
- NC(=O)c1cc2ccc(OC(F)(F)F)cc2n1-c1cccc(CCC(=O)O)c1: -1.59
- NC(=O)c1cc2ccc(OC(F)F)cc2n1-c1cccc(CCC(=O)O)c1: -1.17
- NC(=O)c1cc2ccccc2n1Cc1cccc(C(=O)O)c1: 1.32
- NC(=O)c1cc2ccccc2n1-c1cccc(C(=O)O)c1: 1.46
- NC(=O)c1cc2ccccc2n1-c1cccc(C(F)(F)F)c1: 0.84
- NC(=O)c1cc2ccc(F)cc2n1-c1cccc(CCC(=O)O)c1: -0.59

Alright, here's another molecule for you.
Request: Hello, please tell me recorded log10(IC50) for this one: `Cc1ccc2cc(C(N)=O)n(-c3cccc(CCC(=O)O)c3)c2c1`
Result: -0.64

Reference for the values: ChEMBL document CHEMBL4145659
